Data origin, for the record: the supplement of paper PMC9170038

tested on: K4 kissing-loop RNA reporter; assay: apparent KD of K4 kissing-loop reporter; higher = weaker reporter binding; conditions: Eterna round: R107; input ligand: theophylline 20 uM
Could you label it Criterion met if measured apparent KD of K4 kissing-loop reporter is 100 nM or higher, and Criterion not met otherwise?

Q: Form field: apparent KD of K4 kissing-loop reporter at least 100 nM? Entry: UGACUGGAUGGAAGGAGCGCUAAACUCCUAGUGAUGUUAGGGAUAUGAGGCAAAGCCUUGAGGCAGGUAGGUCGCCAUCUAGUCU [FiskerMod 25 - Jieux - Same State - Arginine B]
Ans: Criterion met

Q: Next: AUUAAUAUCACGGCCGCCACUGUAUAUUGUUUUUAUAUUUAGAAUAAUUGCCAGUGAUGUUGGAACAGGACCGGGUGAGUUUAUA [#28 K4 Tryptophan B Same State]
Ans: Criterion met

Q: How about this sequence: AUAAAUUUGUAGUGAUGUUGCAAGUUAGUCAAGGAUAUCAGGAAACUGAGAAGGUGAUAUCUCCUUUACUUGCAACUAGGAGGAG [KL-SSFMN-A11]
Ans: Criterion not met

Q: Next: GAGAUAGAGGCGGCCGCCACUAGUGAUGUUAGUGAUGUUAGAAAGAGAAUAGAACAGGGAUUUGAUAGGACCGGGCCAGAUGGAG [wwemullin]
Ans: Criterion not met

Q: Repeat with `GGUAGCAUGGCGGCCGCCACUACCUAGUGAUGUUAGGCUGUGGACAUAGGAGCAAGACAAAUAUGUAGGACCGGGCCAUGCUACC`
Ans: Criterion met

Q: Let us now turn to GAGUCGGCACAAGGAUAUAGGUGUAGUGAUGUUAUGUCUCCUUGACUCACUCGUUACCCUCAACGUCUAGAAGGUGUGAAUGCAG [theeternabot_exclusion_KL_FMN_B_46]
Ans: Criterion met

###

system: K4 kissing-loop RNA reporter; assay: apparent KD of K4 kissing-loop reporter; higher = weaker reporter binding; settings: Eterna round: R107; input ligand: theophylline 20 uM;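 note: bound reporter read as fluorescence of individual clusters on recovered sequencing chips by microscopy, with normalized cluster intensities fitted with a binding model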
For each of the sequences below, state its apparent KD of K4 kissing-loop reporter.
Report as a plain number; the unit nM is understood.

Q: Returns the measured apparent KD of K4 kissing-loop reporter for the input sequence. Input: GAUUCCCAAGCGGCCGCCACUUAUAGUGAUGUUAUAGGGACUGCGGAUCAGGACAAUCAUACAUAAAGGACCGGGCUAUUCUGAC [theeternabot_exclusion_KL_Trp_B_1]
Ans: 255

Q: Continue with `GCAUCCGAUGCAGGAUAUAGAUGAACGAGUGAUGUUUGGAAUUUAUGUCCAAAGCCUACGAUCAAACUAGAAGGGCAUCGGAUGC`
Ans: 167

Q: Follow-up item: UUAUAACCCAGUGAUGUUGGGUAGCGGCCACGAGGACCGGUACGGCCGCCACUCGAGGUUUAACCAGUGAUGUUGGACUAUAUAA [Same state Tryptophan A GF 4]
Ans: 34.5

###

Would you mind telling me the reported apparent KD of MS2 coat protein of each entry?
tested on: MS2 coat protein; experiment: apparent KD of MS2 coat protein; designed switch direction (-1 OFF switch, 1 ON switch): -1; higher = weaker reporter binding; settings: input ligand: FMN 200 uM
Only the number, expressed in µM, is required.

Q: Look at this sequence and give its reported apparent KD of MS2 coat protein. UUAGAUUGAGGAUAUACAUGAGGAUCACCCAUGUCGAUACCAAUGGUGUUGACCGUCAGUAGAAGGCGAAUUGA [Eternabot (L1) Solution 87] (Eterna round: R97, puzzle: Exclusion 3)
Ans: 0.163

Q: Another sequence to check: GAGGGAGGAGGAUAUUCCUUCGAGAACAUGAGGAUCACCCAUGUGUUAUAUCGAAAGCCCGAAGAAGGCCUCGCUA [Eternabot (Original) Solution 50] (Eterna round: R97, puzzle: Exclusion 5)
Ans: 0.0175

Q: What would you report for ACCUUACUUGAGGAUCACCCAAGUCAGGAUAUACACCAGAAUAAAUCCCAGCCCUGGCGUAGAAGGGACGGGUG [Soesma] (Eterna round: R97, puzzle: Exclusion 1) ?
Ans: 0.0239
